Hi there, I'd appreciate the recorded MIC for every entry that follows.
tested on: Escherichia coli; assay: Antibacterial activity against Escherichia coli DH5alpha expressing beta-lactamase CTX-M-15 by CLSI broth microdilution method; type: functional; conditions: DH5[alpha]
Only the number, expressed in µg/mL, is required.

Entry CC(C)(O/N=C(\C(=O)N[C@H]1CON(C2(C(=O)O)C[C@H](N3C(=O)c4cc(O)c(O)cc4C3=O)C(=O)O2)C1=O)c1csc(N)n1)C(=O)O (stereo partly specified) has what MIC?
0.015

For Nc1nc(/C(=N/OCc2cc(=O)c(O)cn2O)C(=O)N[C@H]2CON(C3(C(=O)O)CCC(=O)O3)C2=O)cs1 (stereo partly specified) , what is its reported MIC?
4

Which MIC is listed for CC(C)(O/N=C(\C(=O)N[C@H]1CON(C2(C(=O)O)CCC(=O)O2)C1=O)c1csc(N)n1)C(=O)O (stereo partly specified) ?
0.5

// returns reported MIC for input CC1(C)[C@H](NC(=O)/C(=N\OCc2cc(=O)c(O)cn2O)c2csc(N)n2)C(=O)N1OS(=O)(=O)O
1

Dear colleague, I am looking for the recorded MIC of the following molecule: CC[C@H](O)Cn1c(-c2cc(=O)c(O)c[nH]2)nn(S(=O)(=O)[N-]C(=O)N2C[C@H](NC(=O)/C(=N\OC(C)(C)C(=O)[O-])c3csc(N)n3)C2=O)c1=O.[Na+].[Na+]
0.25
